SYSTEM: GABAA receptors (α5β2γ2) (Homo sapiens, UniProt P18507+P31644)
Construct: expressed in transfected cells
Sequence (P31644 32-462): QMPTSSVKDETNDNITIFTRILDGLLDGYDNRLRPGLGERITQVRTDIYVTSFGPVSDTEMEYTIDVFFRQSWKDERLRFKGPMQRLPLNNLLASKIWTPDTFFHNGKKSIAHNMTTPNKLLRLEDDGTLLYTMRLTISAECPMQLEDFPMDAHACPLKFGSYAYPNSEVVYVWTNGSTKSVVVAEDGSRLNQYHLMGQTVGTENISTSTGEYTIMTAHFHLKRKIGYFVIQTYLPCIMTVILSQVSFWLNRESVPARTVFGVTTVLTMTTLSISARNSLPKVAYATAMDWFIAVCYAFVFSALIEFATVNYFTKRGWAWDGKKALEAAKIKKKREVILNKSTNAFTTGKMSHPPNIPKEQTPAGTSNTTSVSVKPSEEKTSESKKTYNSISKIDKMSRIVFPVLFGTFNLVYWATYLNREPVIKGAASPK
Sequence (P47870 25-512 partner limits assumed): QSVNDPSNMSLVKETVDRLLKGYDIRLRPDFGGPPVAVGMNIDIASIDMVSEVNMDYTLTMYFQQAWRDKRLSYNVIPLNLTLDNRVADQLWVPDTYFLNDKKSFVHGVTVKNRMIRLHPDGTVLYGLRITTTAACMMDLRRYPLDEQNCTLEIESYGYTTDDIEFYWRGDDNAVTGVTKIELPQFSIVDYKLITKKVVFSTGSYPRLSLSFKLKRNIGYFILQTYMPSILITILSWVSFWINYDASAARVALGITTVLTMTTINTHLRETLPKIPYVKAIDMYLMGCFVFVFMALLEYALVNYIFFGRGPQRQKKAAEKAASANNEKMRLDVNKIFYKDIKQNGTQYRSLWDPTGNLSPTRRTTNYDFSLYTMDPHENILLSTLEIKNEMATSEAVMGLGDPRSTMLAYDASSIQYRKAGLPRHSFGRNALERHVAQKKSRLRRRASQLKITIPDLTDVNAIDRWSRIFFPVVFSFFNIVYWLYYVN
Sequence (P18507 40-475): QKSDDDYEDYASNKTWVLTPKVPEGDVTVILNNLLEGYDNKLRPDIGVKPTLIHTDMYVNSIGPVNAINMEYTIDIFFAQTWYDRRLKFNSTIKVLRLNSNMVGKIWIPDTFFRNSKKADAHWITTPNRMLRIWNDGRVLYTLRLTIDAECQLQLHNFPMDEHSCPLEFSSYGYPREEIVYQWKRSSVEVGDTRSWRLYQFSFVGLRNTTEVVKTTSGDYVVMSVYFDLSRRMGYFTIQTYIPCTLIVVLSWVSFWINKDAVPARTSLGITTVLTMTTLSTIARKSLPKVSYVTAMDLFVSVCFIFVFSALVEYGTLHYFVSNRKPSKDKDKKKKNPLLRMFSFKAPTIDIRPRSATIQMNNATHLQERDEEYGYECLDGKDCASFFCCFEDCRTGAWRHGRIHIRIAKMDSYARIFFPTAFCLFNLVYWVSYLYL
ASSAY EXPLANATION: Positive allosteric modulator activity: potentiation of EC20 GABA current in oocytes
Format: cell-based
TEST SETTINGS: read-out: GABA α5 functional potentiation
activation at 0.1 µM overview
QUANTITY NAME: activation at 0.1 µM

* Cc1nnn2c1Cc1c(C(=O)OC(C)C)ncn1-c1ccccc1-2 [Compound 153] | 20 to 49%
* CCOCc1nnc2n1Cc1c(-c3nc(C(C)C)no3)ncn1-c1ccc(Cl)cc1-2 [Compound 254] | 20 to 49%
* COc1ccc2c(c1)-c1nnc(COCc3ccccc3F)n1Cc1c(-c3noc(C(C)C)n3)ncn1-2 [Compound 184] | 20 to 49%
* CCOC(=O)c1ncn2c1Cn1c(COc3ccccc3)nnc1-c1cc(OC)ccc1-2 [Compound 55] | 20 to 49%
* CCOCc1nnc2n1Cc1c(-c3noc(C(C)C)n3)ncn1-c1ccc(F)cc1-2 [Compound 187] | 20 to 49%
